Biological target: T1, Human TROP2 ECD (31-274 AA), biotinylated (human, UniProt P09758 31-274, biotinylated (site not stated))
T1 construct: also called tumor-associated calcium signal transducer 2; Human TROP2-biotin
T1 sequence: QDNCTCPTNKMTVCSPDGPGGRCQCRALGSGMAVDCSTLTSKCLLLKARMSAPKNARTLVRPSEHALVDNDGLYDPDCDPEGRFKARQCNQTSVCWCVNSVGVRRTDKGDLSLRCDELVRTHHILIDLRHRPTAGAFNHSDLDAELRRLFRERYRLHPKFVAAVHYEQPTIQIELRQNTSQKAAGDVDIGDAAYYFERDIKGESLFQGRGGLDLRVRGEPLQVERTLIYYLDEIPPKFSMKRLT
Test: ELISA, ratio of EC50 to that of TBD-1 wt
reported-endpoint: Fold shift in EC50 relative to wt (fold)
One number for each entry, in fold.

- binder: "TBD-14 (anti-TROP2 Fab, HC F101A) (Fab, V domains shown) VH: QVQLQQSGSELKKPGASVKVSCKASGYTFTNYGMNWVKQAPGQGLKWMGWINTYTGEPTYTDDFKGRFAFSLDTSVSTAYLQISSLKADDTAVYFCARGGAGSSYWYFDVWGQGSLVTVSS VL: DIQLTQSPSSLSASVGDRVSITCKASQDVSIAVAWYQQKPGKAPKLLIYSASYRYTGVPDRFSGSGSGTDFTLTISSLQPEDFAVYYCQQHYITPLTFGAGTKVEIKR"
  result-units: "fold"
  Fold shift in EC50 relative to wt: 193

Prompt line: Look up Fold shift in EC50 relative to wt: TBD-11 (anti-TROP2 Fab, HC R98A) (Fab, V domains shown, also called TBD-11 (HC R98A mutant)) VH: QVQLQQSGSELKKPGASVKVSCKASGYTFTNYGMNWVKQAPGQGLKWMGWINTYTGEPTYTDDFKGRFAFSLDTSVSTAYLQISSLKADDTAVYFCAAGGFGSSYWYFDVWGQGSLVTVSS VL: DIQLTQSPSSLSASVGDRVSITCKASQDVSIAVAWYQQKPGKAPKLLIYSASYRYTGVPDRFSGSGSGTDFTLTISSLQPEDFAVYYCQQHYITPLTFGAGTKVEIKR
Response line: 19

Just for reference, patent US20230357429A1 is where these values come from.
